The origin of these recorded values is PubChem BioAssay (NCATS).

Test system: PAD
Experiment: qHTS profiling for inhibitors of Plasmodium falciparum proliferation (AID 504749); further: nearly all actives have a fitted effect of over 60% in size; further: potency means the concentration at half of the fitted maximal effect
Details: P. falciparum in erythrocytes, SYBR Green DNA, 72 h; series mostly up to 28.7 µM
Records with an inconclusive call do not appear. Calls of active or inactive are those of the source. The call rests on the fitted dose curve; in most records, active means well fitted inhibition curve with a large enough effect; inconclusive means small, poorly fitted or top-dose-only effect; inactive means flat fitted curve, though single readings scatter.

| molecule | assay_system | Potency |
| --- | --- | --- |
| COCc1c(C(C)C)nc(C(C)C)c(/C=C/[C@@H](O)C[C@@H](O)CC(=O)O)c1-c1ccc(F)cc1 | PAD | inactive |
| CCN(CC)C(=O)/C(C#N)=C/c1cc(O)c(O)c([N+](=O)[O-])c1 | PAD | inactive |
| O=C(O)c1cc2cc(Cc3cccnc3)ccc2o1 | PAD | inactive |
| COc1cc(OC)cc(OC)c1 | PAD | inactive |
| Cc1cc(O)c(C(C)C)cc1Cl | PAD | inactive |
| CC(=O)Oc1ccc(C(c2ccc(OC(C)=O)cc2)c2ccccn2)cc1 | PAD | inactive |
| CN1C2CCC1CC(OC(=O)c1c[nH]c3ccccc13)C2 (stereo not drawn) | PAD | inactive |
| CN1CCN(C(c2ccccc2)c2ccccc2)CC1 | PAD | inactive |
| COc1ccc(CN2CCN(C(c3ccc(F)cc3)c3ccc(F)cc3)CC2)c(OC)c1OC | PAD | 8.91 µM (active) |
| C[C@@H](CN(C)C)CN1c2ccccc2Sc2ccccc21 | PAD | inactive |
| COc1cc(C(=S)N2CCOCC2)cc(OC)c1OC | PAD | inactive |
| CCCCN1CCCC1C(=O)Nc1c(C)cc(C)cc1C (stereo not drawn) | PAD | inactive |
| NCCC(O)(P(=O)(O)O)P(=O)(O)O | PAD | inactive |
| Cc1c(C(C)C)c(=O)n(-c2ccccc2)n1C | PAD | inactive |
| CN1CCC[C@@H]1c1cccnc1 | PAD | inactive |
| O=S1(=O)c2cccc3cccc(c23)N1CCCN1CCN(c2ccc(F)cc2)CC1 | PAD | inactive |
| CCCN1CCCC[C@H]1C(=O)Nc1c(C)cccc1C | PAD | inactive |
| Cc1ccc(O)c2ncccc12 | PAD | inactive |
| O=C1c2ccccc2C(=O)C1c1ccccc1 | PAD | inactive |
| CN1CCN(CCCN2c3ccccc3Sc3ccc(S(=O)(=O)N(C)C)cc32)CC1 | PAD | 3.98 µM (active) |
| CCn1cc(C(=O)O)c(=O)c2cnc(N3CCCC3)nc21 | PAD | inactive |
| CN1C(CCl)Nc2cc(Cl)c(S(N)(=O)=O)cc2S1(=O)=O (stereo not drawn) | PAD | inactive |
| CCCCCCCCCCCCCCCCOP(=O)([O-])OCC[N+](C)(C)C | PAD | inactive |
| CCCOC(C(=O)OC1CCN(C)CC1)(c1ccccc1)c1ccccc1 | PAD | inactive |
| C=CCc1ccc(O)c(OC)c1 | PAD | inactive |
| O=C(CCN1CCC(c2ccccc2)C1)c1ccc2c(c1)OCCO2 (stereo not drawn) | PAD | inactive |
| CCOc1ccc2nc3cc(N)ccc3c(N)c2c1 | PAD | 7.08 µM (active) |
| NCCCC[C@H](N[C@@H](CCc1ccccc1)C(=O)O)C(=O)N1CCC[C@H]1C(=O)O | PAD | inactive |
| COc1ccc(C2C(=O)c3ccccc3C2=O)cc1 | PAD | inactive |
| CC(=O)Nc1c(I)cc(I)c(C(=O)O)c1I | PAD | inactive |
| NC(=NCCCCCCN=C(N)/N=C(\N)Nc1ccc(Cl)cc1)/N=C(\N)Nc1ccc(Cl)cc1 | PAD | 3.16 µM (active) |
| CCN(CC)CCNC(=O)COc1ccc(Cl)cc1 | PAD | 11.2 µM (active) |
| c1ccc(OCc2ccc(CCCN3CCOCC3)cc2)cc1 | PAD | inactive |
| CCCCCCCCCCCCCCCCCC(=O)OCC(O)CO (stereo not drawn) | PAD | inactive |
| O=C(COc1ccc(Cl)cc1)N1CCN(Cc2ccc3c(c2)OCO3)CC1 | PAD | inactive |
| Cc1c(C(N)=O)cc([N+](=O)[O-])cc1[N+](=O)[O-] | PAD | inactive |
| CC(=O)Oc1ccc(C(=C2CCCCC2)c2ccc(OC(C)=O)cc2)cc1 | PAD | inactive |
| CC(=O)c1ccc2c(c1)N(CCCN1CCC(CCO)CC1)c1ccccc1S2 | PAD | inactive |
